Assay: Plasma pharmacokinetics of BMS-962212 after IV infusion
Settings: human, in vivo, iv, 1.5 mg h^−1

smiles_record: CN1CCN(c2cccc3c2CCN(C(=O)/C=C/c2c(-n4cnnn4)ccc(Cl)c2F)[C@@H]3C(=O)Nc2ccc(C(=O)O)cc2)C(=O)C1
AUC(0-t): 122 ng·h/mL

###

Test: Plasma pharmacokinetics of BMS-962212 after IV infusion
Conditions: human, in vivo, iv, 10 mg h^−1, CL, part A 2-h IV infusion 10 mg h^−1; geometric mean (CV%)

molecule: CN1CCN(c2cccc3c2CCN(C(=O)/C=C/c2c(-n4cnnn4)ccc(Cl)c2F)[C@@H]3C(=O)Nc2ccc(C(=O)O)cc2)C(=O)C1 [BMS‐962212]
reading_unit: mL/min
clearance: 320

###

Assay: Plasma pharmacokinetics of BMS-962212 after IV infusion
Details: human, in vivo, iv, 10 mg h^−1, t1/2, part A 2-h IV infusion 10 mg h^−1; geometric mean (CV%)

smiles_record: CN1CCN(c2cccc3c2CCN(C(=O)/C=C/c2c(-n4cnnn4)ccc(Cl)c2F)[C@@H]3C(=O)Nc2ccc(C(=O)O)cc2)C(=O)C1
half-life (h): 4.68

###

Assay: Plasma pharmacokinetics of BMS-962212 after IV infusion
Details: human, in vivo, iv, 10 mg h^−1

smiles_record: CN1CCN(c2cccc3c2CCN(C(=O)/C=C/c2c(-n4cnnn4)ccc(Cl)c2F)[C@@H]3C(=O)Nc2ccc(C(=O)O)cc2)C(=O)C1
AUC(0-inf): 1050 ng·h/mL

###

Experiment: Plasma pharmacokinetics of BMS-962212 after IV infusion
Details: human, in vivo, iv, 3 mg h^−1, Vz, part B 5-day IV infusion 3 mg h^−1; geometric mean (CV%)
measurement_name: Vd (L)

smiles_record: CN1CCN(c2cccc3c2CCN(C(=O)/C=C/c2c(-n4cnnn4)ccc(Cl)c2F)[C@@H]3C(=O)Nc2ccc(C(=O)O)cc2)C(=O)C1
reported_value: 165

###

Experiment: Plasma pharmacokinetics of BMS-962212 after IV infusion
Conditions: human, in vivo, iv, 25 mg h^−1
measurement_name: Cmax

smiles_record: CN1CCN(c2cccc3c2CCN(C(=O)/C=C/c2c(-n4cnnn4)ccc(Cl)c2F)[C@@H]3C(=O)Nc2ccc(C(=O)O)cc2)C(=O)C1
reported_value: 1120 ng/mL

###

Test: Plasma pharmacokinetics of BMS-962212 after IV infusion
Details: human, in vivo, iv, 3 mg h^−1, CL, part B 5-day IV infusion 3 mg h^−1; geometric mean (CV%)

smiles_record: CN1CCN(c2cccc3c2CCN(C(=O)/C=C/c2c(-n4cnnn4)ccc(Cl)c2F)[C@@H]3C(=O)Nc2ccc(C(=O)O)cc2)C(=O)C1
clearance: 280 mL/min

###

Assay: Plasma pharmacokinetics of BMS-962212 after IV infusion
Conditions: human, in vivo, iv, 4 mg h^−1, Vz, part A 2-h IV infusion 4 mg h^−1; geometric mean (CV%)
measurement_name: Vd (L)

compound: CN1CCN(c2cccc3c2CCN(C(=O)/C=C/c2c(-n4cnnn4)ccc(Cl)c2F)[C@@H]3C(=O)Nc2ccc(C(=O)O)cc2)C(=O)C1 [BMS‐962212]
measurement_name: Vd
reading_unit: L
reported_value: 118

###

Experiment: Plasma pharmacokinetics of BMS-962212 after IV infusion
Conditions: human, in vivo, 3 mg, t 1/2, part B 3 mg h^−1; Japanese ethnicity (n = 4); mean (CV%)
measurement_name: half-life (h)

smiles_record: CN1CCN(c2cccc3c2CCN(C(=O)/C=C/c2c(-n4cnnn4)ccc(Cl)c2F)[C@@H]3C(=O)Nc2ccc(C(=O)O)cc2)C(=O)C1
measurement_name: half-life
reading_unit: h
reported_value: 6.42

###

Experiment: Plasma pharmacokinetics of BMS-962212 after IV infusion
Details: human, in vivo, iv, 20 mg h^−1
measurement_name: Cmax (ng/mL)

compound: CN1CCN(c2cccc3c2CCN(C(=O)/C=C/c2c(-n4cnnn4)ccc(Cl)c2F)[C@@H]3C(=O)Nc2ccc(C(=O)O)cc2)C(=O)C1 [BMS‐962212]
measurement_name: Cmax
reported_value: 1170

###

Test: Plasma pharmacokinetics of BMS-962212 after IV infusion
Settings: human, in vivo, iv, 3 mg h^−1

smiles_record: CN1CCN(c2cccc3c2CCN(C(=O)/C=C/c2c(-n4cnnn4)ccc(Cl)c2F)[C@@H]3C(=O)Nc2ccc(C(=O)O)cc2)C(=O)C1
AUC(0-inf): 21400 ng·h/mL

###

Experiment: Plasma pharmacokinetics of BMS-962212 after IV infusion
Conditions: human, in vivo, iv, 25 mg h^−1, CL, part A 2-h IV infusion 25 mg h^−1; geometric mean (CV%)

compound: CN1CCN(c2cccc3c2CCN(C(=O)/C=C/c2c(-n4cnnn4)ccc(Cl)c2F)[C@@H]3C(=O)Nc2ccc(C(=O)O)cc2)C(=O)C1 [BMS‐962212]
clearance (mL/min): 312

###

Test: Plasma pharmacokinetics of BMS-962212 after IV infusion
Conditions: human, in vivo, iv, 3 mg h^−1
measurement_name: Cmax (ng/mL)

compound: CN1CCN(c2cccc3c2CCN(C(=O)/C=C/c2c(-n4cnnn4)ccc(Cl)c2F)[C@@H]3C(=O)Nc2ccc(C(=O)O)cc2)C(=O)C1 [BMS‐962212]
reported_value: 202

###

Experiment: Plasma pharmacokinetics of BMS-962212 after IV infusion
Conditions: human, in vivo, iv, 10 mg h^−1, Vz, part A 2-h IV infusion 10 mg h^−1; geometric mean (CV%)

smiles_record: CN1CCN(c2cccc3c2CCN(C(=O)/C=C/c2c(-n4cnnn4)ccc(Cl)c2F)[C@@H]3C(=O)Nc2ccc(C(=O)O)cc2)C(=O)C1
Vd / L: 126
